assay: amyloid nucleation score (Sup35N fusion, yeast selection) (log enrichment); library NNK2; higher = more nucleation; inactive = no reads after selection;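 note: zero at mode of non-aggregating sequences after 7 days selection at 30°C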
Parameter amyloid nucleation score: see the listing below.
Form: value (number only, do not type unit).

Example entries begin here.
// query amyloid nucleation score value for entry LANKAYYVCLV 0.022

Now give it for PLGPNSTYFVWASSWAFYRP too. -1.65

Now give it for VDYTVFGGPTQRIGER too. 0.073

Now give it for IKSSAFGAGVQLAAQRSVIT too. -0.432

Now give it for HDVSVLYEPTAAGWNRLLQT too. 0.262

Now give it for RSEDGRGGSKGQIIRVVMNW too. 4.76

# ---- query sequence ----
// query amyloid nucleation score value for entry IINSDLMCLVNLFVNDSMRG 8.09
